Recorded measurements of Enzyme Activity Endpoint Assay (purified): scIgG, one per entry
# STUDY_TARGET: pooled human IgG (human IgG1,2,3 and 4)
Answer shape: numeric part, then the unit.

Which Enzyme Activity Endpoint Assay (purified): scIgG is listed for PRT-489 (protein) MVTSVWTKGVTPPANFTQGEDVFHAPYVANQGWYDITKTFNGKDNLLCGAATAGNMLHWWFDQNKDQIERYLKEHPEKQKIIFNNQELFDLKAAIDTKDSQTDSKLFEYFKEKAFPYLSTKHLGVFPDHVLDMFINGYRLSLTNHGPTPVKEGSKDKRGGIFDAVFTRGVQSKLLTSRHDLKNKTLKEISDLIKQELTEGKALGLSHTYANVRINHVINLWGADFDSEGNLKAIYVTDSDTNASIGMKKYFVGVNSAGKVAISAKEIKEDNIGAQVLGLFTLSTGQDIWNQTNLEHHHHHH ? 0 ng/µL

Which Enzyme Activity Endpoint Assay (purified): scIgG is listed for PRT-338 (protein) MTITSVWTKGVTPPTPEDFRENNEDVLHAPYLANQGWYDITKAFDGKDNLLCGAATAGNMLHWWFDQNKEEIERYLKKHPEKQKIIFNNQELFDVKAAIDTKDSQTNSKLFNYFRDKAFPNLSARQLGVMPDLVLDMFINGYYLNLGKTQSTDVNRPYQDKDKRGGIFDAVFTRGDQTTLLTARHDLKNKGLNEISDLIKQELTEGKALALSHTYANVSINHVINLWGADFDAEGNLEAIYVTDSDANASIGMKKYFVGRNAHGKVAISAKKIEGDNIGAQVLGLFTLSLGQDIWQKLS ? 287 ng/µL

Which Enzyme Activity Endpoint Assay (purified): scIgG is listed for PRT-520 (protein) MVTSVWTKGVTPPTDFRKIVDGNIAYYHAPYKAGQGWYDITKAFDGGDNLLCGAATAGNMLHWWFDQNKEYIEAYLKKHPEKQKIIFNNQELFDLKAAINTKGSQKNSELFNYFRDKAFPNLSARRLGVFPDLVLDMFINGYYLNVTKTQTTDVNRTYQEKDKRGGIFDAVFTRGVQSKLLTSRHDLKNKGLKEISDLIKQELTEGKALGLSHTYANVRINHVINLWGADFDSDGNLKAIYVTDSDTNASIGMKKYFVGVNSAGKVAISAKEIKEDNIGAQVLGLFTLSTGQDIWNQTNLEHHHHHH ? 475 ng/µL

Which Enzyme Activity Endpoint Assay (purified): scIgG is listed for PRT-450 (protein) MVTSVWTKGVTPPTDFRKIVDGNIAYYHAPYKAGQGWYDITKAFDGGDDLLCGAATAGNMLHWWFDQNKDQIEAYLKEHPEKQKINFNGEQMFDVKEAIDTKDDQTNSELFNYFKEKAFPYLSTKHLGVFPDHVLDMFINGYRLSLTNHGPTPVKEGSKDPRGGIFDAVFTRGDQSKLLTSRHDLKNKTLKEISDLIKQELTEGKALALSHTYANVRINHVINLWGADFDSNGNLEAIYVTDSDSNASIGMKKYFVGVNSAGKVAISAKEIEDDNIGAQVLGLFTLSTGQDIWNQTNLEHHHHHH ? 481 ng/µL
